molecular target: mouse melanocortin 4 receptor (mouse, UniProt P56450 1-332); assay: cell-based or functional assay
Sequence (P56450 whole entry): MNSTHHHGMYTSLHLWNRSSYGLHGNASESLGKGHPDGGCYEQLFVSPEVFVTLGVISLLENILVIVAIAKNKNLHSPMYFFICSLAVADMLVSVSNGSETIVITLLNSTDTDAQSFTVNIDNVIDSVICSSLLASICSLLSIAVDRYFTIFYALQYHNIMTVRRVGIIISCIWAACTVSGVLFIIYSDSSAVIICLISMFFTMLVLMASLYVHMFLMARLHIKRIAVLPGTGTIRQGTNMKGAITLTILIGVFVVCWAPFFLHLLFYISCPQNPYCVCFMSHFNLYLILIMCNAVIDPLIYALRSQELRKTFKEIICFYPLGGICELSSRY
Non-standard residues stand in square brackets, D forms with d. Dap = NC[C@H](N)C(=O)O
// EC50 (nM), agonist, cAMP AlphaScreen lookup, one value per entry
MEASUREMENT_LABEL: EC50 (nM), agonist, cAMP AlphaScreen

>>> measured("cyclo(P[dF]RWN[dP]) (also: TFA salt) [MDE6-10-1c, c[Pro-DPhe-Arg-Trp-Asn-DPro]]")
1100
>>> measured("cyclo(PH[dF]RWNA[dP]) (also: TFA salt) [MDE6-3-2c, c[Pro-His-DPhe-Arg-Trp-Asn-Ala-DPro]]")
29
>>> measured("cyclo(P[dF]RW[Dap]AF[dP]) (also: TFA salt) [MDE5-151-1c, c[Pro-DPhe-Arg-Trp-Dap-Ala-Phe-DPro]]")
100
